Source: the supplement of paper PMC6757056

B1: library; a variant is named by its letters at N, in order (parent)
chain: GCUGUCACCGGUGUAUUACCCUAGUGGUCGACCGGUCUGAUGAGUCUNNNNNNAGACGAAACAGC

- Variants of: B1
- test.summary: normalized RNA/DNA level without ligand (relative to sTRSVctl = 100) (log10 (% of sTRSVctl)); ligand: hypoxanthine (xanthine aptamer); higher = less ribozyme self-cleavage, higher mRNA level
- condition.parameters: HEK293T, reporter: mCherry (pCS4076), ligand present: no
reported.metric: normalized RNA/DNA level without ligand (log10)

{"columns": ["sequence", "readout.value"],
 "data": [
  ["GCUGUCACCGGUGUAUUACCCUAGUGGUCGACCGGUCUGAUGAGUCUGUCCACAGACGAAACAGC", 1.85],
  ["GCUGUCACCGGUGUAUUACCCUAGUGGUCGACCGGUCUGAUGAGUCUGGCACAAGACGAAACAGC", 1.86],
  ["GCUGUCACCGGUGUAUUACCCUAGUGGUCGACCGGUCUGAUGAGUCUAGACGCAGACGAAACAGC", 1.69],
  ["GCUGUCACCGGUGUAUUACCCUAGUGGUCGACCGGUCUGAUGAGUCUUGUCUAAGACGAAACAGC", 1.92],
  ["GCUGUCACCGGUGUAUUACCCUAGUGGUCGACCGGUCUGAUGAGUCUGCAAGGAGACGAAACAGC", 1.35],
  ["GCUGUCACCGGUGUAUUACCCUAGUGGUCGACCGGUCUGAUGAGUCUGGUAGCAGACGAAACAGC", 1.35],
  ["GCUGUCACCGGUGUAUUACCCUAGUGGUCGACCGGUCUGAUGAGUCUAUAACUAGACGAAACAGC", 1.88],
  ["GCUGUCACCGGUGUAUUACCCUAGUGGUCGACCGGUCUGAUGAGUCUGAUGCCAGACGAAACAGC", 1.88],
  ["GCUGUCACCGGUGUAUUACCCUAGUGGUCGACCGGUCUGAUGAGUCUUCCAAAAGACGAAACAGC", 1.8],
  ["GCUGUCACCGGUGUAUUACCCUAGUGGUCGACCGGUCUGAUGAGUCUCUUUGAAGACGAAACAGC", 1.88],
  ["GCUGUCACCGGUGUAUUACCCUAGUGGUCGACCGGUCUGAUGAGUCUAUUGGUAGACGAAACAGC", 1.66]
]}
